Where do these numbers come from? They come from patent US10729749B2.

test system: PC12 cells; experiment: Acetylcholinesterase activity assay (AChE release from PC12 cells, Ellman reagent); assay type: cell-based; settings: Aβ 5 μM + small peptide 0.5 μM; % AChE release compared to untreated control
Ends that are not written are not given here.
measured metric: AChE (%)

INSERT INTO measurements (substance, measured_metric, measured_number) VALUES
  ('VHWKAE [NBP-614]', 'AChE', 85.05),
  ('WSSYMVHWKA [NBP-1009]', 'AChE', 101.23),
  ('SYMVHWKAEF [NBP-1011]', 'AChE', 84.13),
  ('MVHWKAEFHRWS [NBP-1213]', 'AChE', 93.73),
  ('HRWSSYMVHWKA [NBP-1207]', 'AChE', 94.30),
  ('MVHWKAEFHRWSSY [NBP-1413]', 'AChE', 99.85),
  ('SYMVHWK [NBP-711]', 'AChE', 108.57),
  ('FHRWSSYMVHWK [NBP-1206]', 'AChE', 96.92),
  ('SYMVHWKAEFHRW [NBP-1311]', 'AChE', 93.51),
  ('SSYMVHWKAEFH [NBP-1210]', 'AChE', 98.18),
  ('YMVHWKAEFHR [NBP-1112]', 'AChE', 98.77),
  ('VHWKAEFHRWSSY [NBP-1314]', 'AChE', 104.08),
  ('EFHRWSSYM [NBP-905]', 'AChE', 106.42),
  ('SSYMVHWKAEFHRW [NBP-1410]', 'AChE', 93.51),
  ('WKAEFHRWSSYMVH [NBP-1402]', 'AChE', 99.85);
